# reported T½; entries follow
Tested on: β-glucuronidase in rat colon feces
assay details: Rat colon fecal homogenate stability assay
Assay type: in vitro ADME
experimental conditions: in vitro half-life in rat fecal supernatant-homogenate, anaerobic, 10 μM substrate; individual values when assay repeated
metric name: T½

INSERT INTO results (compound, metric_name, endpoint_result) VALUES
  ('Cc1ccc(O[C@@H]2O[C@H](C(=O)O)[C@@H](O)[C@H](O)[C@H]2O)c(N(C)C(=O)n2ccc3c(N(C)[C@H]4CN(C(=O)CC#N)CC[C@H]4C)ncnc32)c1 [Compound III-3]', 'T½', '< 15 min'),
  ('C[C@@H]1CCN(C(=O)CC#N)C[C@@H]1N(C)c1ncnc2c1ccn2C(=O)N(C)CCN(C)C(=O)OCc1ccccc1O[C@@H]1O[C@H](C(=O)O)[C@@H](O)[C@H](O)[C@H]1O [Compound V-1]', 'T½', '<15, <15 min'),
  ('C[C@@H]1CCN(C(=O)CC#N)C[C@@H]1N(C)c1ncnc2c1ccn2C(=O)N(C)Cc1ccccc1O[C@@H]1O[C@H](C(=O)O)[C@@H](O)[C@H](O)[C@H]1O [Compound III-6]', 'T½', '<15, <15 min'),
  ('C[C@@H]1CCN(C(=O)CC#N)C[C@@H]1N(C)c1ncnc2c1ccn2C(=O)N(C)Cc1cc([N+](=O)[O-])ccc1O[C@@H]1O[C@H](C(=O)O)[C@@H](O)[C@H](O)[C@H]1O [Compound III-7]', 'T½', '<15, <15 min');
